System: Aβ42
Assay: Screening for γ-secretase-modulating activity, Method 2: Aβ42 Alphalisa on SKNBE2 cell supernatant
Type: cell-based
Details: Method 2, Table 3c, SKNBE2 cells carrying APP 695 wild type, overnight incubation
measurement type: IC50 (µM)

COc1cc(OC)cc(-c2nc3c(Nc4ccc(-n5cnc(C)c5)c(OC)n4)cccc3n2C)c1.Cl.Cl.O : 0.012

[I] COc1nc(Nc2nc(C)cc3c2nc(-c2ccc(F)cc2)n3C)ccc1-n1cnc(C)c1
[II] COc1ccc(-c2nc3c(Nc4ccc(-n5cnc(C)c5)c(OC)n4)cccc3n2C)cc1
[III] COc1cc(-c2nc3c(Nc4ccc(-n5cnc(C)c5)c(OC)n4)cccc3n2C)cc(C(F)(F)F)c1
[IV] Cc1ncn(-c2ccc(Nc3cccc4c3nc(-c3ccc(F)cc3)n4C(C)C)nc2)n1
[V] COc1cc(Nc2ccc(-n3cnc(C)c3)c(OC)n2)c2nc(-c3ccc(F)cc3)n(C)c2n1
Problem: Provide the items ranked by increasing IC50. Use the labels to give the ranking in the order requested.
Result: V, III, II, I, IV

###

System: Aβ42
Assay: Screening for γ-secretase-modulating activity, Method 2: Aβ42 Alphalisa on SKNBE2 cell supernatant
Format: cell-based
Settings: Method 2, Table 3c, SKNBE2 cells carrying APP 695 wild type, overnight incubation
measurement type: IC50 (µM)

Here is how some compounds turned out for IC50.
COc1cc(Nc2nccc3c2nc(CC2CC2)n3C)ccc1-n1ncnc1C : 5.89
COc1cc(-c2nc3c(Nc4ccc(-n5cnc(C)n5)c(OC)c4)nc(C)cc3n2C)ccc1Cl : 0.01
COc1nc(Nc2cccc3c2nc(-c2cc(F)cc(F)c2)n3C)ccc1-n1cnc(C)c1.Cl.Cl.O : 0.006
COc1cc(Nc2nc(C)cc3c2nc(-c2ccccc2Cl)n3C)ccc1-n1cnc(C)n1 : 0.044
COc1cccc(-c2nc3c(Nc4ccc(-n5cnc(C)c5)c(OC)n4)cccc3o2)c1 : 0.234
COc1nc(Nc2cc(C)nc3c2nc(-c2ccc(F)cc2)n3C)ccc1-n1cnc(C)c1 : 0.004
COc1nc(Nc2cccc3c2nc(-c2ccc(F)cc2)n3C(C)C)ccc1-n1cnc(C)c1 : 0.004
COc1nc(Nc2cccc3c2nc(-c2cc(F)cc(C(F)(F)F)c2)n3C)ccc1-n1cnc(C)c1 : 0.005
COc1nc(Nc2cccc3c2nc(-c2ccc(F)cc2C)n3C)ccc1-n1cnc(C)c1 : 0.025
COc1cc(Nc2cccc3c2nc(-c2ccc(F)cc2)n3C(C)C)ccc1-n1cnc(C)n1.Cl.Cl : 0.045

[A] COc1cc(Nc2nc(C)cc3c2nc(-c2ccc(F)cc2)n3C)ccc1-n1cnc(C)n1
[B] COc1nc(Nc2cccc3c2nc(-c2ccc(F)c(C(F)(F)F)c2)n3C)ccc1-n1cnc(C)c1
[C] COc1nc(Nc2cccc3c2nc(-c2ccccc2)n3C)ccc1-n1cnc(C)c1
[D] COc1cc(Nc2cccc3c2nc(-c2ccc(C(F)(F)F)nc2)n3C(C)C)ccc1-n1cnc(C)c1
Problem: Ordering criterion: IC50; begin with the maximum. Output spec: a listing of the labels in the requested order.
Result: A, D, C, B
(A: 0.046 µM, D: 0.028 µM, C: 0.019 µM, B: 0.013 µM)

###

Tested on: Aβ42
Experiment: Screening for γ-secretase-modulating activity, Method 2: Aβ42 Alphalisa on SKNBE2 cell supernatant
Type: cell-based
Details: Method 2, Table 3c, SKNBE2 cells carrying APP 695 wild type, overnight incubation
pIC50: −log10 of the molar value.
measurement type: pIC50

COc1cccc(-c2nc3c(Nc4ccc(-n5cnc(C)c5)c(OC)c4)cccc3n2C)c1 : 7.89
COc1nc(Nc2cccc3c2nc(-c2ccccc2F)n3C)ccc1-n1cnc(C)c1 : 7.41
Cc1cn(-c2ccc(Nc3cccc4c3nc(-c3ccc(F)cc3)n4C)cc2F)cn1 : 7.44

[A] CCn1c(CC2CC2)nc2c(Nc3ccc(-n4cnc(C)c4)c(OC)c3)cccc21
[B] COc1cc(Nc2cccc3c2nc(-c2ccc(Cl)s2)n3C(C)C)ccc1-n1cnc(C)n1
[C] COc1nc(Nc2cccc3c2nc(-c2cccc(C(F)(F)F)c2)n3C)ccc1-n1cnc(C)c1
[D] COc1nc(Nc2cccc3c2nc(-c2ccc(=O)n(C)c2)n3C)ccc1-n1cnc(C)c1
[E] COc1ccccc1-c1nc2c(Nc3ccc(-n4cnc(C)c4)c(F)c3)nc(C)cc2n1C
Problem: Your job: order these 5 records by pIC50, ascending. Answer format: list of labels, ordered as asked.
Result: D, E, A, B, C

Data origin, for the record: patent US8772504B2
